Values were extracted from patent US6071932A.

EXPERIMENTAL TARGET: GABA uptake carrier (Rattus norvegicus)
Construct: A crude membrane preparation was prepared from selected brain areas; from tissue; host or cells: crude membrane (synaptosomal) preparation from selected brain areas
Sequence (P31647 whole entry): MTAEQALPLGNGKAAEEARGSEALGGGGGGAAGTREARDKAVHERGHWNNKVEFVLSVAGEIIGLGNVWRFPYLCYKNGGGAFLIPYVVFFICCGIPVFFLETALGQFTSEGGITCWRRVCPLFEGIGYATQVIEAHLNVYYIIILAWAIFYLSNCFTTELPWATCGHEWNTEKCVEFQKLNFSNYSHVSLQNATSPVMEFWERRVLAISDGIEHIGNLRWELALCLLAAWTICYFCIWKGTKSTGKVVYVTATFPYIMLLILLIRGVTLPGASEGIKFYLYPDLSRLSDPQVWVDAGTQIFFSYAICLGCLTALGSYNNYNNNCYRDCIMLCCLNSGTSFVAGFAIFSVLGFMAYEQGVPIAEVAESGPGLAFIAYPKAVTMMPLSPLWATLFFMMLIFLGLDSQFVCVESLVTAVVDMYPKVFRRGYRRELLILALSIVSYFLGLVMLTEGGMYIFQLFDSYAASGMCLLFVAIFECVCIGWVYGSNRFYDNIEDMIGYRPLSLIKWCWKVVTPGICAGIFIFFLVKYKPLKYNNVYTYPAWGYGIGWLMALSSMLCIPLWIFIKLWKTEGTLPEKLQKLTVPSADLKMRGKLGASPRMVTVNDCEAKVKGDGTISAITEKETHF
EXPERIMENT DESCRIPTION: 3H-GABA uptake in crude brain membrane preparation in presence of NNC 05-0711
Type: biochemical
ASSAY SETUP: NNC 05-0711 1 mM, 0.9 nM 3H-GABA + 25 nM GABA, pH 7.5, 30° C., 8 min, read-out: IC50 (nM) in vitro, Non-GABA uptake carrier mediated uptake of 3H-GABA
Where a name gives a salt, the structure may show the parent alone.
QUANTITY MEASURED: IC50 (nM)
Record the value in nM, omitting the unit from your answer.

[[record]]
compound = "CC(Cl)CC(=O)n1c2ccccc2c2ccccc21 (stereo not shown) [Compound 23, 1-(9H-Carbazol-9-yl)-3-chlorobutan-1-one]"
experimental_target = "GABA uptake carrier (Rattus norvegicus)"
test_value = 3100

[[record]]
compound = "C[C@H](CN1CCC(O)(c2ccccc2)CC1)Cn1c2ccccc2c2ccccc21 [Compound 13, hydrochloride]"
experimental_target = "GABA uptake carrier (Rattus norvegicus)"
test_value = 7860

[[record]]
compound = "C[C@@H](CN1CCC(O)(c2ccccc2)CC1)Cn1c2ccccc2c2ccccc21 [Compound 11, hydrochloride]"
experimental_target = "GABA uptake carrier (Rattus norvegicus)"
test_value = 1480


Continue with the compound presented below.
Look up IC50 for this compound: CCc1ccc2c(c1)c1ccccc1n2CCCN1CCC(O)(c2ccccc2)CC1 [Compound 16] 1700
